Measured values drawn from patent US12174198B2 for this set.

# systemUnderTest: PGL-3 condensates (Caenorhabditis elegans)
# Sequence (G5EBV6 whole entry): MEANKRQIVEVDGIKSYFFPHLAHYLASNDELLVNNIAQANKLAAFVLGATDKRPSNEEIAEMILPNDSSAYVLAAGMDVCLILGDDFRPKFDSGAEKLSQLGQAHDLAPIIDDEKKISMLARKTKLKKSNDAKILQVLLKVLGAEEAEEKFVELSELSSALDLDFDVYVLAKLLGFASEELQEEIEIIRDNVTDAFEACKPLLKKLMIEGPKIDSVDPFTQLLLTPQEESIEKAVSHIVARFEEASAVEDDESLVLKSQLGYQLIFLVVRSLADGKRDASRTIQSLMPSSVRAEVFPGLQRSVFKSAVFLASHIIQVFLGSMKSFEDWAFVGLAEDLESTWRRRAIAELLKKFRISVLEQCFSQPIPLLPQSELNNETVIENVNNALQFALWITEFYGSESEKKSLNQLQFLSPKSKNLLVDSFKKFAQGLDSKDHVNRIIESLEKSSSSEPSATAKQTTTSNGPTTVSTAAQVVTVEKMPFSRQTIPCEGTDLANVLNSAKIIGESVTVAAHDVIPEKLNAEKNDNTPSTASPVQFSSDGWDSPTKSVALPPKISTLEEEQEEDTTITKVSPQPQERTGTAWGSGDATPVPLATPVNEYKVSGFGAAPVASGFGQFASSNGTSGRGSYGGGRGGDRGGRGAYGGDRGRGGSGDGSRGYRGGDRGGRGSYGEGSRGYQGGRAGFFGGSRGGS
# method: Fluorescence imaging of dye partitioning in PGL-3 condensates (I-in, I-out)
# Type: physicochemical
# recordedConditions: outside PGL-3 condensate; 10 μM dye, 5 μM protein; image 2; one day of experiments
Structures can show the parent of a compound that is named as a salt.
Rule: Intensity Outside with Dye 2 of 300 or more gives 1.0; anything lower gives 0.0.

compound | assignedLabel
O=C([O-])c1ccccc1C1=c2cc3c4c(c2Oc2c1cc1c5c2CCCN5CCC1)CCC[N+]=4CCC3 [Dye 17, Rhodamine 101 inner salt] | 1.0
O=C1OC2(c3ccc(O)cc3Oc3cc(O)ccc32)c2ccccc21 | 1.0
O=C1OC2(c3ccc(O[C@@H]4O[C@H](CO)[C@H](O)[C@H](O)[C@H]4O)cc3Oc3cc(O[C@@H]4O[C@H](CO)[C@H](O)[C@H](O)[C@H]4O)ccc32)c2ccccc21 [Dye 12, Fluorescein di(β-D-galacto-pyranoside)] | 0.0
CC/N=c1/cc2oc3cc(NCC)c(C)cc3c(-c3ccccc3C(=O)NCCOCCOCCN)c-2cc1C.O=C(O)C(F)(F)F | 1.0
CC(=O)c1cc2cc3c4c(c2oc1=O)CCCN4CCC3 | 0.0
CCN(CC)c1ccc2c(-c3ccccc3C(=O)O)c3ccc(=[N+](CC)CC)cc-3oc2c1 | 1.0
